# Test system: HT-22 cells
# Protocol details: Cytotoxicity in HT-22 cell (MTT)
# Format: cell-based, murine
# Experimental conditions: compound 25 μM, 18 hrs
Record met whenever Cell Survival (%) is at 70% or higher; record not met when lower.

[[record]]
compound = "CN(C)c1ccc(/C=C/c2cc(/C=C/c3ccc(N(C)C)c(O)c3)ncn2)cc1O [Ex. 7]"
assayed_target = "HT-22 cells"
label = "met"

[[record]]
compound = "COc1cc(/C=C/c2cc(/C=C/c3ccc(O)c(OC)c3)ncn2)ccc1O [Ex. 6]"
assayed_target = "HT-22 cells"
label = "met"

[[record]]
compound = "COc1nc(/C=C/c2ccc(O)cc2)cc(/C=C/c2ccc(O)cc2)n1 [Ex. 8]"
assayed_target = "HT-22 cells"
label = "met"

[[record]]
compound = "COc1ccc(/C=C/c2cc(O)cc(/C=C/c3ccc(OC)c(O)c3)c2)cc1O [Ex. 25]"
assayed_target = "HT-22 cells"
label = "met"

[[record]]
compound = "COc1cc(/C=C/c2cc(O)cc(/C=C/c3ccc(O)c(OC)c3)c2)ccc1O [Ex. 24]"
assayed_target = "HT-22 cells"
label = "met"

[[record]]
compound = "CSc1nc(/C=C/c2ccc(O)cc2)cc(/C=C/c2ccc(O)cc2)n1 [Ex. 14]"
assayed_target = "HT-22 cells"
label = "not met"

[[record]]
compound = "COc1nc(/C=C/c2ccc(O)c(OC)c2)cc(/C=C/c2ccc(O)c(OC)c2)n1 [Ex. 10]"
assayed_target = "HT-22 cells"
label = "met"

[[record]]
compound = "CN(C)c1ccc(/C=C/c2cc(O)cc(/C=C/c3ccc(N(C)C)c(O)c3)c2)cc1O [Ex. 27]"
assayed_target = "HT-22 cells"
label = "not met"

[[record]]
compound = "COc1nc(/C=C/c2ccc(O)c(N(C)C)c2)cc(/C=C/c2ccc(O)c(N(C)C)c2)n1 [Ex. 12]"
assayed_target = "HT-22 cells"
label = "met"

